Reported self-splicing fitness (ln) values are given for each entry in this list.
- protocol: self-splicing fitness, log relative to wild type (ln ratio); higher = more splicing; Tetrahymena group I intron in knt gene, E. coli kanamycin selection, DiMSum; sequences stand for … in CUCUCU…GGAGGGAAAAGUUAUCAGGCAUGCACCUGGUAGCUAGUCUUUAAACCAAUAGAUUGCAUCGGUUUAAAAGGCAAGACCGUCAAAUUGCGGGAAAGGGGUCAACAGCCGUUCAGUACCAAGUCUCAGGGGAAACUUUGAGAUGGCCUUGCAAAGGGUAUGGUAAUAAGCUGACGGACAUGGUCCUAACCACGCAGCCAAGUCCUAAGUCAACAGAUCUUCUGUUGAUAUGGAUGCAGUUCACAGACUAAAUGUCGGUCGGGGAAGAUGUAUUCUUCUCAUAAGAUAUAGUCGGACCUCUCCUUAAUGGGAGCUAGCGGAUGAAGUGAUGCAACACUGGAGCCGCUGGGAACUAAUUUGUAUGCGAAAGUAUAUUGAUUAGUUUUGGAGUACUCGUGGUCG;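 further: selection with 25 µg/mL kanamycin versus none on LB agar overnight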
- assay conditions: 30 °C
Just the number, please, no unit attached.

# biopolymer sequence, readout type, obs value
records = [
    ("UCUUAGCAAUAUUACGUCAU", "self-splicing fitness (ln)", -1.86),
    ("UUCUAGCAAUAUUACGGGCG", "self-splicing fitness (ln)", -0.382),
    ("CUUGAGCAAUAUUACGCGUG", "self-splicing fitness (ln)", -2.84),
    ("UUGCAGCAAUAUUACGUGCC", "self-splicing fitness (ln)", -2.11),
    ("UACGAGCAAUAUUACGAAGC", "self-splicing fitness (ln)", -2.71),
]

Input `ACUCAGCAAUAUUACGCAAA` . Output self-splicing fitness (ln): -2.02

Input `UUCUAGCAAUAUUACGUUAC` . Output self-splicing fitness (ln): -2.41

Input `AAUCAGCAAUAUUACGCCCU` . Output self-splicing fitness (ln): 0.314

Input `AAGAAGCAAUAUUACGUCUA` . Output self-splicing fitness (ln): -0.234

Input `ACAUAGCAAUAUUACGAAAA` . Output self-splicing fitness (ln): -2.4

Input `AGCGAGCAAUAUUACGUGAA` . Output self-splicing fitness (ln): -3.44

Input `GCAUAGCAAUAUUACGAGAU` . Output self-splicing fitness (ln): -3.61

Input `AAGAAGCAAUAUUACGACAA` . Output self-splicing fitness (ln): -0.745

Input `GUCGAGCAAUAUUACGGUAG` . Output self-splicing fitness (ln): -2.02

Input `CAUAAGCAAUAUUACGUCUC` . Output self-splicing fitness (ln): -3.68

Input `CCAUAGCAAUAUUACGUAUA` . Output self-splicing fitness (ln): -3.89

Input `AACAAGCAAUAUUACGCCUA` . Output self-splicing fitness (ln): -0.12

Input `AGGCAGCAAUAUUACGAACU` . Output self-splicing fitness (ln): 0.174

Input `GUGAAGCAAUAUUACGUGUA` . Output self-splicing fitness (ln): -1.11

Input `GAAUAGCAAUAUUACGUUCU` . Output self-splicing fitness (ln): -3.24

Input `AUUAAGCAAUAUUACGGAAA` . Output self-splicing fitness (ln): -2.98

Input `CUUUAGCAAUAUUACGUAGA` . Output self-splicing fitness (ln): -2.52

Input `GUACAGCAAUAUUACGGCAU` . Output self-splicing fitness (ln): -0.301

Input `UAGUAGCAAUAUUACGCUAA` . Output self-splicing fitness (ln): -2.12

Input `CCUCAGCAAUAUUACGCCAC` . Output self-splicing fitness (ln): -3.18

Input `AGUGAGCAAUAUUACGGCGA` . Output self-splicing fitness (ln): -1.18

---

- protocol: self-splicing fitness, log relative to wild type (ln ratio); higher = more splicing; Tetrahymena group I intron in knt gene, E. coli kanamycin selection, DiMSum; sequences stand for … in CUCUCU…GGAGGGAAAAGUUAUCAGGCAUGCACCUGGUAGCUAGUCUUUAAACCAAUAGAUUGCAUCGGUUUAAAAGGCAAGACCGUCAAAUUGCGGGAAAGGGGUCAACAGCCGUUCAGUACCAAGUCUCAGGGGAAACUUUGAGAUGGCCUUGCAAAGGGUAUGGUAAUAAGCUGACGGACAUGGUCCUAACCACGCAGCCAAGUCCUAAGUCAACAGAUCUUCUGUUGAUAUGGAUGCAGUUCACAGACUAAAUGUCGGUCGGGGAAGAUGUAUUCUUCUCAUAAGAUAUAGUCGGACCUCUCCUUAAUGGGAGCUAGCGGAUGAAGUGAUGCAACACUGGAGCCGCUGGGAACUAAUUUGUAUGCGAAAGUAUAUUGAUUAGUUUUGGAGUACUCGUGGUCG
- assay conditions: 37 °C
Outcome label depends on self-splicing fitness (ln) relative to -1: at/above gives fulfilled, below gives not fulfilled.

# biopolymer sequence, assigned category
data = [
    ("GCAUAGCAAUAUUACGACAG", "not fulfilled"),
    ("AUCUAGCAAUAUUACGGCCC", "fulfilled"),
    ("GCGUAGCAAUAUUACGUAUG", "not fulfilled"),
    ("CAGAAGCAAUAUUACGUUAG", "fulfilled"),
    ("UGCGAGCAAUAUUACGCUAC", "fulfilled"),
]

Ask: Is reported self-splicing fitness (ln) greater than or equal to -1 here: `GACUAGCAAUAUUACGAUGA`
Result: not fulfilled

Ask: Is reported self-splicing fitness (ln) greater than or equal to -1 here: `GUUGAGCAAUAUUACGACGG`
Result: not fulfilled

Ask: Is reported self-splicing fitness (ln) greater than or equal to -1 here: `GGUCAGCAAUAUUACGAAGA`
Result: fulfilled

Ask: Is reported self-splicing fitness (ln) greater than or equal to -1 here: `UAUUAGCAAUAUUACGGACA`
Result: fulfilled

Ask: Is reported self-splicing fitness (ln) greater than or equal to -1 here: `AGGCAGCAAUAUUACGGAAG`
Result: not fulfilled

Ask: Is reported self-splicing fitness (ln) greater than or equal to -1 here: `GGCUAGCAAUAUUACGGUGC`
Result: fulfilled

Ask: Is reported self-splicing fitness (ln) greater than or equal to -1 here: `UGUUAGCAAUAUUACGGUUA`
Result: fulfilled

Ask: Is reported self-splicing fitness (ln) greater than or equal to -1 here: `AUGGAGCAAUAUUACGCCGA`
Result: not fulfilled

Ask: Is reported self-splicing fitness (ln) greater than or equal to -1 here: `CCCCAGCAAUAUUACGAAAG`
Result: not fulfilled

Ask: Is reported self-splicing fitness (ln) greater than or equal to -1 here: `CGGUAGCAAUAUUACGCGUU`
Result: not fulfilled

Ask: Is reported self-splicing fitness (ln) greater than or equal to -1 here: `UGUAAGCAAUAUUACGCAGG`
Result: not fulfilled

---

- protocol: self-splicing fitness, log relative to wild type (ln ratio); higher = more splicing; Tetrahymena group I intron in knt gene, E. coli kanamycin selection, DiMSum; sequences stand for … in CUCUCU…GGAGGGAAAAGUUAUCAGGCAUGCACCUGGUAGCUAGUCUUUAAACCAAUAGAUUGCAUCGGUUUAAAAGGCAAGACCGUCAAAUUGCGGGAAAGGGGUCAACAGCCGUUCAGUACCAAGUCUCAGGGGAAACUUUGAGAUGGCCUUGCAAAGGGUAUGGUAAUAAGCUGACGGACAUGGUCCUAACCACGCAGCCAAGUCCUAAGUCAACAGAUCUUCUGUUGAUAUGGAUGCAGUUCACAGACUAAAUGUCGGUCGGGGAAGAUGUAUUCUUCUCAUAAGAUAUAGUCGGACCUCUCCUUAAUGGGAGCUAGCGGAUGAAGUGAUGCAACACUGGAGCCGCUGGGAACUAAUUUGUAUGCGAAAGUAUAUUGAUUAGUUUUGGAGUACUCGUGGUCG
- assay conditions: 30 °C
I'd appreciate it if you could label each record using self-splicing fitness (ln) and these ranges: low = under -2, medium = from -2 up to -1, high = -1 and over

# example entries with known answers
# biopolymer sequence, assigned category
data = [
    ("GUUGAGCAAUAUUACGCCUU", "low"),
    ("AAUUAGCAAUAUUACGGCUA", "high"),
    ("GGUAAGCAAUAUUACGCUAG", "low"),
    ("GACAAGCAAUAUUACGAUGU", "medium"),
    ("AGAAAGCAAUAUUACGACCG", "high"),
]

Then this sequence:
Ask: Bin? `GGAUAGCAAUAUUACGACAA`
Result: high

---

- protocol: self-splicing fitness, log relative to wild type (ln ratio); higher = more splicing; Tetrahymena group I intron in knt gene, E. coli kanamycin selection, DiMSum; sequences stand for … in CUCUCU…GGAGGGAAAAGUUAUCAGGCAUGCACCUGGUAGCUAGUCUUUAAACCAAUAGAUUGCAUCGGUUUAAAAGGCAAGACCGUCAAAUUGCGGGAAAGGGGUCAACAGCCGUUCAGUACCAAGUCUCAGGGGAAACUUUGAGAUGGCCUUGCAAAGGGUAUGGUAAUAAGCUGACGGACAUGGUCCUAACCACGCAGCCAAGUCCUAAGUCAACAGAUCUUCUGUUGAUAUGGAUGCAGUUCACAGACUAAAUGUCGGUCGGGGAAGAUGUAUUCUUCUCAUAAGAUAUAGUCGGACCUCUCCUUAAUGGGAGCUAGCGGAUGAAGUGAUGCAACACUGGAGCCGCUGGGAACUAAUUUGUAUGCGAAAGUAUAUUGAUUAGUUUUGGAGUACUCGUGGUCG
- assay conditions: 37 °C
readout type: self-splicing fitness (ln)
Just the number, please, no unit attached.

Previously resolved entries follow.
# biopolymer sequence, self-splicing fitness (ln)
measured = [
    ("CCAUAGCAAUAUUACGCCCG", 0.418),
    ("CGCGAGCAAUAUUACGAAAA", -3.06),
    ("CGAGAGCAAUAUUACGUACG", -2.28),
    ("ACAGAGCAAUAUUACGGUGA", -2.41),
    ("UUAUAGCAAUAUUACGCGGG", -1.92),
    ("AUUGAGCAAUAUUACGUGCG", -2.02),
    ("UCAUAGCAAUAUUACGGGUU", -3.34),
    ("AGGUAGCAAUAUUACGGCUC", -0.185),
    ("CGUGAGCAAUAUUACGUGUU", -2.86),
    ("UGCUAGCAAUAUUACGCACG", -1.18),
]

Input `AAACAGCAAUAUUACGGGAG` . Output self-splicing fitness (ln): -2.66

Input `CUAGAGCAAUAUUACGCAUU` . Output self-splicing fitness (ln): -2.2

Input `AGCCAGCAAUAUUACGCAGA` . Output self-splicing fitness (ln): -2.94

Input `GAUCAGCAAUAUUACGAAUG` . Output self-splicing fitness (ln): -0.0569
